molecular target: Integrin alpha-5/beta-1 (Homo sapiens, UniProt P05556+P08648); assay: Inhibition of fibronectin binding to human Integrin alpha5beta1 receptor by competitive ELISA
reported property: IC50 (nM)

// solved cases for IC50 follow
compound: NC(N)=NCCC[C@@H]1NC(=O)CNC(=O)C[C@@H](C(=O)O)NC(=O)[C@@H](c2ccccc2)NC(=O)[C@@H]2CCCN2C1=O
reported property: IC50
unit of measure: nM
test result: 111
--
compound: N=C(N)NCCC[C@@H]1NC(=O)CNC(=O)C[C@@H](C(=O)O)NC(=O)[C@@H](c2ccccc2)NC(=O)CNC1=O
reported property: IC50
unit of measure: nM
test result: 19
--
compound: NC(N)=NCCC[C@@H]1NC(=O)CNC(=O)C[C@@H](C(=O)O)NC(=O)[C@@H](c2ccccc2)NC(=O)[C@@H](Cc2ccc(O)cc2)NC1=O
reported property: IC50
unit of measure: nM
test result: 8.7
--
compound: CC(C)[C@@H]1NC(=O)[C@H](CCCN=C(N)N)NC(=O)CNC(=O)C[C@@H](C(=O)O)NC(=O)[C@@H](c2ccccc2)NC1=O
reported property: IC50
unit of measure: nM
test result: 115

a. NC(N)=NCCC[C@@H]1NC(=O)CNC(=O)C[C@@H](C(=O)O)NC(=O)[C@@H](c2ccccc2)NC(=O)[C@H](CCC(=O)O)NC1=O
b. Cc1ccnc(NCCCC(=O)NCC(=O)NC(CC(=O)O)c2ccc(-c3cccc4ccccc34)cc2)c1 (configuration not stated)
c. N=C(N)NCCC[C@@H]1NC(=O)CNC(=O)C[C@@H](C(=O)O)NC(=O)[C@@H](c2ccccc2)NC(=O)[C@@H](CCCCN)NC1=O
Query: Hi! Can you put these in order of IC50, lowest number first? Reply with the item labels sorted in the order that was asked for.
Reply: c, a, b

====

Here, each record is paired with measured IC50 data.
biological target: Integrin alpha-V/beta-5 (Homo sapiens, UniProt P06756+P18084); assay: Inhibition of vitronectin binding to Integrin alphaVbeta5 receptor (unknown origin) by competitive ELISA

Completed entries (count: 4):
compound: N=C(N)NCCC[C@@H]1NC(=O)CNC(=O)C[C@@H](C(=O)O)NC(=O)[C@@H](c2ccccc2)NC(=O)[C@@H](CCCCN)NC1=O
IC50: > 10 µM
//
compound: N=C(N)NCCC[C@@H]1NC(=O)[C@H](CCCCN)NC(=O)[C@@H](Cc2ccccc2)NC(=O)[C@H](CC(=O)O)NC(=O)CNC1=O
IC50: 0.31 µM
//
compound: Cc1ccnc(NCCCC(=O)NCC(=O)NC(CC(=O)O)c2ccc(-c3cccc4ccccc34)cc2)c1 (stereo unspecified)
IC50: > 10 µM
//
compound: N=C(N)NCCC[C@@H]1NC(=O)CNC(=O)C[C@@H](C(=O)O)NC(=O)[C@@H](c2ccccc2)NC(=O)CNC1=O
IC50: > 10 µM

Query: GET /values?readout=IC50&system=Integrin alpha-V/beta-5 (Homo sapiens, UniProt P06756+P18084)&item= `NC(N)=NCCC[C@@H]1NC(=O)CNC(=O)C[C@@H](C(=O)O)NC(=O)[C@@H](c2ccccc2)NC(=O)[C@@H](Cc2c[nH]c3ccccc23)NC1=O`
Reply: > 10 µM

Query: And `NCCCC[C@@H]1NC(=O)[C@H](CCCN=C(N)N)NC(=O)CNC(=O)C[C@@H](C(=O)O)NC(=O)[C@@H](c2ccccc2)NC1=O` ?
Reply: > 10 µM
